This listing pairs compounds with measured speed of sound.
# experimental_context: 333.15 K; 102 kPa; Liquid; Frequency=3 MHz; Sing-around technique in a fixed-path interferometer
Answer with a number only, understood to be in m/s.

Here's what some known entries look like.
compound_smiles	speed of sound, m/s
CCCCc1ccccc1	1201.4
CCCCCCCCCCCCCCCC	1212
CCCCCCCCCCCC	1148
CCCCC1CCCCC1	1172.6

Now for a further compound.
Exercise: For the compound `CCCCCCc1ccccc1` , report speed of sound.
Key: 1228.8
